pIC50: −log10 of the molar value.
A compilation of pIC50 values for Cathepsin K (Oryctolagus cuniculus, UniProt P43236) from the published literature.

{"MOLECULE": "CC(C)C[C@H](Nc1ccc(-c2ccc(N3CCNCC3)cc2)cc1)C(=O)NCC#N", "pIC50": 7.57}
{"MOLECULE": "CC(C)C[C@H](Nc1cscc1-c1ccc(N2CCNCC2)cc1)C(=O)NCC#N", "pIC50": 9.00}
{"MOLECULE": "CSc1ccc(-c2ncccc2C2CCC(F)(F)CC2C(=O)NCC#N)cc1 (racemic)", "pIC50": 9.00}
{"MOLECULE": "CS(=O)(=O)c1ccc(-c2cn(CC(F)(F)F)nc2[C@@H]2CCC(F)(F)C[C@H]2C(=O)NC2(C#N)CC2)cc1", "pIC50": 8.03}
